The measured values listed here are drawn from patent US5981540A.

- assay-system: delta opioid receptor (Mus musculus, UniProt P32300)
- Construct: Mouse brain membranes were prepared as described by
- Sequence (P32300 whole entry): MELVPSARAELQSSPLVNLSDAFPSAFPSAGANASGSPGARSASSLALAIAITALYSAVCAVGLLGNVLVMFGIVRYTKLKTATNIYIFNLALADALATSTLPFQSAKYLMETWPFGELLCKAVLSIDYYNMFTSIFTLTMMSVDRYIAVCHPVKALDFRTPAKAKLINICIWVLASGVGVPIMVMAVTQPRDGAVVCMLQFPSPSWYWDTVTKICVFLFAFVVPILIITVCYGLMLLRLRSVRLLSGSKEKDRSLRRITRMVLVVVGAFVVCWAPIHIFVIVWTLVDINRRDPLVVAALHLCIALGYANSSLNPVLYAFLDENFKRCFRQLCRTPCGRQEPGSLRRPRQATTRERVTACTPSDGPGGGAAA
- protocol-details: Radioligand binding, delta opioid receptor ([3H]-DADLE, mouse brain membranes)
- assay-context: [3H]-DADLE binding, 1.3 nM, with 40 nM unlabelled DAMGO
Structures can show the parent of a compound that is named as a salt.
assay-metric: pKi
// returns pKi (minus log10 of molar concentration), number only

The reported pKi of the compound CCN(CC)C(=O)c1[nH]c2c(c1C)C[C@H]1[C@H]3Cc4ccc(OC)c5c4[C@@]1(CCN3C)[C@H]2O5 [Example 7, hydrochloride] was 8.80
